Test system: MSTO-211H cells
assay.explanation: Cell proliferation inhibition experiment (CellTiter-Glo)
Format: cell-based
assay.setup: Homo sapiens, 96 hours, read-out: Inhibitory activity of each compound on the proliferation of MSTO-211H cells (grades of IC50 values)
# IC50 values compiled below

Below are worked cases with known answers.
{"columns": ["compound", "IC50"],
 "data": [
  ["CCn1ncc2c(c1=O)Oc1c(cc(C(N)=O)c(-c3c(Cl)c(F)cc4c3C[C@](c3ccccc3)([C@@H]3CCCN3)O4)c1F)O2 (atropisomer, axis not shown)", "< 200 nM"],
  ["NC(=O)c1cc2c(c(F)c1-c1c(Cl)c(F)cc3c1C[C@](c1ccccc1)([C@@H]1CCCN1)O3)Oc1nc(CO)cnc1O2 (atropisomer, axis not shown)", "< 200 nM"],
  ["NC(=O)c1cc2c(c(F)c1-c1c(Cl)c(F)cc3c1C[C@](c1ccccc1)([C@@H]1CCCN1)O3)Oc1ncc(CO)nc1O2 (atropisomer, axis not shown)", "< 200 nM"],
  ["CO[C@H]1C[C@H](CNC[C@@]2(c3ccccc3)Cc3c(cc(F)c(Cl)c3-c3c(C(N)=O)cc4c(c3F)OCc3nn(C)cc3-4)O2)C1 (atropisomer, axis not shown)", "200 to 500 nM"],
  ["CN1C(=O)COc2c1cc(C(N)=O)c(-c1c(Cl)c(F)cc3c1C[C@](c1ccccc1)([C@@H]1CCCN1)O3)c2F (atropisomer, axis not shown)", "200 to 500 nM"]
]}

--- query ---
input: Query (compound): Cn1ncc2c(c1=O)Oc1c(cc(C(N)=O)c(-c3c(Cl)c(F)cc4c3C[C@](c3ccccc3)([C@@H]3CCCN3)O4)c1F)O2 (atropisomer, axis not shown) ; field requested: IC50
output: < 200 nM

====

Test system: MSTO-211H cells
assay.explanation: Cell proliferation inhibition experiment (CellTiter-Glo)
Assay type: cell-based
assay.setup: Homo sapiens, 96 hours, read-out: Inhibitory activity of each compound on the proliferation of MSTO-211H cells (grades of IC50 values)
pIC50: −log10 of the molar value.
# pIC50 values compiled below

Below are worked cases with known answers.
{"columns": ["molecule", "target.or.test.system", "pIC50"],
 "data": [
  ["CCn1ncc2c(c1=O)Oc1cc(C(N)=O)c(-c3c(Cl)c(F)cc4c3C[C@](c3ccccc3)([C@@H]3CCCN3)O4)c(F)c1O2 (atropisomer, axis not shown)", "MSTO-211H cells", "6.30 to 6.70"],
  ["NC(=O)c1cc2c(c(F)c1-c1c(Cl)c(F)cc3c1C[C@](c1ccccc1)([C@@H]1CCCN1)O3)Oc1c(cn[nH]c1=O)O2 (atropisomer, axis not shown)", "MSTO-211H cells", "> 6.70"],
  ["NC(=O)c1cc2c(c(F)c1-c1c(Cl)c(F)cc3c1C[C@](c1ccccc1)([C@@H]1CCCN1)O3)Oc1cnn(CCF)c(=O)c1O2 (atropisomer, axis not shown)", "MSTO-211H cells", "6.30 to 6.70"],
  ["Cn1nc2c(cc1=O)Oc1c(cc(C(N)=O)c(-c3c(Cl)c(F)cc4c3C[C@](c3ccccc3)([C@@H]3CCCN3)O4)c1F)O2 (atropisomer, axis not shown)", "MSTO-211H cells", "6.30 to 6.70"],
  ["Cn1ncc2c(F)c(-c3c(Cl)c(F)cc4c3C[C@](c3ccccc3)([C@@H]3CCCN3)O4)c(C(N)=O)cc21 (atropisomer, axis not shown)", "MSTO-211H cells", "> 6.70"],
  ["Cn1ccc2c(c1=O)Oc1cc(C(N)=O)c(-c3c(Cl)c(F)cc4c3C[C@](c3ccccc3)([C@@H]3CCCN3)O4)c(F)c1O2 (atropisomer, axis not shown)", "MSTO-211H cells", "> 6.70"],
  ["NC(=O)c1cc2c(c(F)c1-c1c(Cl)c(F)cc3c1C[C@](c1ccccc1)([C@@H]1CCCN1)O3)Oc1cnn(CC(F)F)c(=O)c1O2 (atropisomer, axis not shown)", "MSTO-211H cells", "6.30 to 6.70"],
  ["CNC(=O)c1cc2c(c(F)c1-c1c(Cl)c(F)cc3c1C[C@](c1ccccc1)([C@@H]1CCCN1)O3)Oc1c(cnn(CC(F)F)c1=O)O2 (atropisomer, axis not shown)", "MSTO-211H cells", "> 6.70"],
  ["CNC(=O)c1cc2c(c(F)c1-c1c(Cl)c(F)cc3c1C[C@](c1ccccc1)([C@@H]1CCCN1)O3)Oc1c(cnn(CCC(F)(F)F)c1=O)O2 (atropisomer, axis not shown)", "MSTO-211H cells", "> 6.70"],
  ["NC(=O)c1cc2c(c(F)c1-c1c(Cl)c(F)cc3c1C[C@](c1ccccc1)([C@@H]1CCCN1)O3)Oc1c(cnn(CCF)c1=O)O2 (atropisomer, axis not shown)", "MSTO-211H cells", "> 6.70"]
]}

input: Query (molecule): O=C(NC1CC1)c1cc2c(c(F)c1-c1c(Cl)c(F)cc3c1C[C@](c1ccccc1)([C@@H]1CCCN1)O3)Oc1c(cnn(CC(F)F)c1=O)O2 (atropisomer, axis not shown) ; field requested: pIC50
output: > 6.70

input: Query (molecule): COCCCNC[C@@]1(c2ccccc2)Cc2c(cc(F)c(Cl)c2-c2c(C(N)=O)cc3c(c2F)OCc2nn(C)cc2-3)O1 (atropisomer, axis not shown) ; field requested: pIC50
output: > 6.70

input: Query (molecule): NC(=O)c1cc2c(c(F)c1-c1c(Cl)c(F)cc3c1C[C@](c1ccccc1)([C@@H]1CCCN1)O3)Oc1ncn(CCF)c(=O)c1O2 (atropisomer, axis not shown) ; field requested: pIC50
output: > 6.70

input: Query (molecule): NC(=O)c1cc2c(c(F)c1-c1c(Cl)c(F)cc3c1C[C@](c1ccccc1)([C@@H]1CCCN1)O3)OCCO2 (atropisomer, axis not shown) ; field requested: pIC50
output: > 6.70

input: Query (molecule): [2H]C1([2H])CC[C@]([2H])([C@@]2(c3ccccc3)Cc3c(cc(F)c(Cl)c3-c3c(C(=O)NC)cc4c(c3F)Oc3c(cnn(CCC(F)(F)F)c3=O)O4)O2)N1 (atropisomer, axis not shown) ; field requested: pIC50
output: > 6.70

input: Query (molecule): NC(=O)c1cc2c(c(F)c1-c1c(Cl)c(F)cc3c1C[C@](c1ccccc1)([C@@H]1CCCN1)O3)Oc1c(cnn(CC(F)F)c1=O)O2 (atropisomer, axis not shown) ; field requested: pIC50
output: > 6.70

====

Tested on: MSTO-211H cells
assay.explanation: Cell proliferation inhibition experiment (CellTiter-Glo)
Assay type: cell-based
assay.setup: Homo sapiens, 96 hours, read-out: Inhibitory activity of each compound on the proliferation of MSTO-211H cells (grades of IC50 values)
pIC50: −log10 of the molar value.
outcome.measure: pIC50

Below are worked cases with known answers.
{"columns": ["compound", "pIC50"],
 "data": [
  ["NC(=O)c1cc2c(c(F)c1-c1c(Cl)c(F)cc3c1C[C@](c1ccccc1)([C@@H]1CCCN1)O3)Oc1ncccc1C2O (some centres unmarked) [Compound 104]", "6.30 to 6.70"],
  ["NC(=O)c1cc2c(c(F)c1-c1c(Cl)c(F)cc3c1C[C@](c1ccccc1)([C@@H]1CCCN1)O3)Oc1cc(=O)n(C3CC3)nc1O2 (atropisomer, axis not shown) [Compound 129]", "6.30 to 6.70"],
  ["Cn1ccc2c(c1=O)Oc1c(cc(C(N)=O)c(-c3c(Cl)c(F)cc4c3C[C@](c3ccccc3)([C@@H]3CCCN3)O4)c1F)O2 (atropisomer, axis not shown) [Compound 135]", "> 6.70"]
]}

input: Query (compound): NC(=O)c1cc2c(c(F)c1-c1c(Cl)c(F)cc3c1C[C@](c1ccccc1)([C@@H]1CCCN1)O3)Oc1cn[nH]c(=O)c1O2 (atropisomer, axis not shown) [Compound 108] ; field requested: pIC50
output: 5.30 to 6.30

input: Query (compound): CO[C@H]1CC[C@H](NC[C@@]2(c3ccccc3)Cc3c(cc(F)c(Cl)c3-c3c(C(N)=O)cc4c(c3F)OCc3nn(C)cc3-4)O2)CC1 (atropisomer, axis not shown) [Compound 78] ; field requested: pIC50
output: > 6.70

input: Query (compound): NC(=O)c1cc2c(c(F)c1-c1c(Cl)c(F)cc3c1C[C@](c1ccccc1)([C@@H]1CCCN1)O3)Oc1c(ncn(C3CC3)c1=O)O2 (atropisomer, axis not shown) [Compound 139] ; field requested: pIC50
output: > 6.70

input: Query (compound): NC(=O)c1cc2c(c(F)c1-c1c(Cl)c(F)cc3c1C[C@](c1ccccc1)([C@@H]1CCCN1)O3)OCC(=O)N2 (atropisomer, axis not shown) [Compound I-23] ; field requested: pIC50
output: > 6.70

input: Query (compound): Cn1nc2c(cc1=O)Oc1cc(C(N)=O)c(-c3c(Cl)c(F)cc4c3C[C@](c3ccccc3)([C@@H]3CCCN3)O4)c(F)c1O2 (atropisomer, axis not shown) [Compound 122] ; field requested: pIC50
output: > 6.70

Values compiled from patent US20250177408A1.
